Data provenance: patent US20220332811A1

This listing pairs binders with measured Top % of inhibition, STAT3 activation in DB reporter cells.
Target: T1, recombinant human IL-23 (p19/p40 heterodimer) (human, UniProt Q9NPF7 20-189; P29460 23-328)
T1 sequence (looked up) 1: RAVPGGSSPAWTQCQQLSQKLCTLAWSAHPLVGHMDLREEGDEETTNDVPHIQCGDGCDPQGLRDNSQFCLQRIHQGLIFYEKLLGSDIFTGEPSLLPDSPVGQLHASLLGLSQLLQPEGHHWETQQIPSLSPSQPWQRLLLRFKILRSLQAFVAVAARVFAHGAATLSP
T1 sequence (looked up) 2: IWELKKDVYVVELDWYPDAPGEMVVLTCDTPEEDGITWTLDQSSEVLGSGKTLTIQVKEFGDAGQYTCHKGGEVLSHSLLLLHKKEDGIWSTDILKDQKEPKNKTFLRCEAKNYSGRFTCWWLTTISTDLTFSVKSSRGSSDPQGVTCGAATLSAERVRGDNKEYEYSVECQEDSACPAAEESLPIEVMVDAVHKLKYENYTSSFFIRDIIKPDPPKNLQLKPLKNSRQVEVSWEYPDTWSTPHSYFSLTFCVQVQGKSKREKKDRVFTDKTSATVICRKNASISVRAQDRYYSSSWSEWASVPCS
Assay: cell-based or functional assay
measured_property: Top % of inhibition, STAT3 activation in DB reporter cells

binder: Hu-4 18006B* (recombinant, mIgG2a) (antibody, V domains shown) VH: QVHLVQSGAEVKKPGASVKVSCKASGYTFSSYGINWVRQAPGQGLEWMGWISAYSGNTDYSQHLQGRVTMTTDTSTNTAYMELRSLRSDDTAVYYCARASANWYDYFDPWGQGTLVTVSS VL: EIVLTQSPDFQSVTPKEKVTITCRASQTIGGSLHWYQQKPDQSPKLLITYASQSFSGVPSRFSGSGSGTDFTLTIHSLEAEDAATYYCHQSSILPYTFGQGTKLEIK
result: 100%

binder: Hu-4 18006B** (recombinant, hIgG4) (antibody, V domains shown) VH: QVHLVQSGAEVKKPGASVKVSCKASGYTFSSYGINWVRQAPGQGLEWMGWISAYSGNTDYSQHLQGRVTMTTDTSTNTAYMELRSLRSDDTAVYYCARASANWYDYFDPWGQGTLVTVSS VL: EIVLTQSPDFQSVTPKEKVTITCRASQTIGGSLHWYQQKPDQSPKLLITYASQSFSGVPSRFSGSGSGTDFTLTIHSLEAEDAATYYCHQSSILPYTFGQGTKLEIK
result: 100%
